Source of measurements: patent US20250115677A1

- Tested On: T1, recombinant soluble human CEA (extracellular domain, AA 1-687 of huCEA, C-terminal 6xHis) (human, UniProt P06731 35-687)
- T1 construct: also called sCEA; soluble CEA
- T1 sequence: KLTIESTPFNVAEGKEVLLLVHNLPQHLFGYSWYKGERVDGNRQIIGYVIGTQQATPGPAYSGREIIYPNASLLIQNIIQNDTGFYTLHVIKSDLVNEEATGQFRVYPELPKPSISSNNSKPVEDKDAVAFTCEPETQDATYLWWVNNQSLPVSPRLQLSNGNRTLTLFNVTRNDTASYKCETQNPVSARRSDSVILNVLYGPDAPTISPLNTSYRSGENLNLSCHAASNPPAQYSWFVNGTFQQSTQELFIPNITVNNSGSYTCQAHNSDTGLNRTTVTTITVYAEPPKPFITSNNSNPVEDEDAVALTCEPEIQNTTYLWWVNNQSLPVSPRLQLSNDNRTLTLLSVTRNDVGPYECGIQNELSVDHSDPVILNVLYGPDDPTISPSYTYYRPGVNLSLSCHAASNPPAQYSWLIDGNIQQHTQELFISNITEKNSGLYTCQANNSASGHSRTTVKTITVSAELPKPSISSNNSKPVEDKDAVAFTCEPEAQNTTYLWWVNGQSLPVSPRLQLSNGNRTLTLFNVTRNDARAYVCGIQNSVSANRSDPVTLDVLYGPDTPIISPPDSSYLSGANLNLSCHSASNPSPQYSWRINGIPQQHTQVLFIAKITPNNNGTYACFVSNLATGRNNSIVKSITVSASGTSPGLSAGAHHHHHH
- Assay Method Text: SPR; kinetics on huCEA, IgG format
// boundary case: kon equal to 100000 M⁻¹ s⁻¹ maps to not met; strictly smaller maps to met

Consider the worked cases shown below.
# Binder, Category
data = [
    ("BGA6710 variant Q54E, Y57E (antibody, V domains shown, IgG format; both changes in the heavy chain) VH: QVQLVQSGAEVKKPGASVKVSCKASGYIFTSYYLHWVRQAPGQGLEWIGYINPETGETSYAQKFQGRVTMTRDTSTSTVYMELSSLRSEDTAVYYCAREYGNYNYPLDYWGQGTLVTVSS VL: DIQMTQSPSSLSASVGDRVTITCRASENQYGYLAWYQQKPGKVPKLLIYNYKNLVEGVPSRFSGSGSGTDFTLTISSLQPEDVATYYCQHHLGTPYTFGQGTKVEIK", "not met"),
    ("BGA6710 variant Q54E, Y57K (antibody, V domains shown, IgG format; both changes in the heavy chain) VH: QVQLVQSGAEVKKPGASVKVSCKASGYIFTSYYLHWVRQAPGQGLEWIGYINPETGKTSYAQKFQGRVTMTRDTSTSTVYMELSSLRSEDTAVYYCAREYGNYNYPLDYWGQGTLVTVSS VL: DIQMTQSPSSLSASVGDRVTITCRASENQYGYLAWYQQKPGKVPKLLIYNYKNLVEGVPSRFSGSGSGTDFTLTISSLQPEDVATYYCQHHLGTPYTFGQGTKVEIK", "not met"),
]

--- query ---
**Q:** Is kon of BGA6710 variant L92E, Y57K (antibody, V domains shown, IgG format) VH: QVQLVQSGAEVKKPGASVKVSCKASGYIFTSYYLHWVRQAPGQGLEWIGYINPQTGKTSYAQKFQGRVTMTRDTSTSTVYMELSSLRSEDTAVYYCAREYGNYNYPLDYWGQGTLVTVSS VL: DIQMTQSPSSLSASVGDRVTITCRASENQYGYLAWYQQKPGKVPKLLIYNYKNLVEGVPSRFSGSGSGTDFTLTISSLQPEDVATYYCQHHEGTPYTFGQGTKVEIK strictly below 100000 M⁻¹ s⁻¹?
**A:** met
